Entry source: ChEMBL document CHEMBL1129426

target: Polyunsaturated fatty acid 5-lipoxygenase (Rattus norvegicus, UniProt P12527); assay: Inhibition of 5-lipoxygenase catalysis in rat basophilic leukemia (RBL) cells by measuring 5-HETE product formation; assay type: cell-based, RBL-1
Sequence (P12527 whole entry): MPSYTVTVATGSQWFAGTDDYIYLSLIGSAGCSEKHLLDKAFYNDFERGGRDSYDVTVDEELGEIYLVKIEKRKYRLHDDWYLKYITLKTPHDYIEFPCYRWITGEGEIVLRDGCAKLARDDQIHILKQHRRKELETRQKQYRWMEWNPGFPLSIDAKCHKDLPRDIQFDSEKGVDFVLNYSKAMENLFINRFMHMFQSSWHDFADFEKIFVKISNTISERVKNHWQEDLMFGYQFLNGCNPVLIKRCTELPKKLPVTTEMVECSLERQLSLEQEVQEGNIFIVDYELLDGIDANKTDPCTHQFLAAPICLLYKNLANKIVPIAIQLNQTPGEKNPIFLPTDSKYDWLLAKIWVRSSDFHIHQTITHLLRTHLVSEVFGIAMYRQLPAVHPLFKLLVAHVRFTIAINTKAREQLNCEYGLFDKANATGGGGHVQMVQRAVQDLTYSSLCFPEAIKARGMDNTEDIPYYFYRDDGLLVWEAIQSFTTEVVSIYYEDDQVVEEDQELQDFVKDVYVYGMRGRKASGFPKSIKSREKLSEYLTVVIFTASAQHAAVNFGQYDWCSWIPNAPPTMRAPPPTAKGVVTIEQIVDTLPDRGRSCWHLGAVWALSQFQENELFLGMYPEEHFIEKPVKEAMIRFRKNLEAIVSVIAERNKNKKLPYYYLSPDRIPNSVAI
pIC50: −log10 of the molar value.
Quick rule for you: pIC50 at 5 or higher means t, lower means f.

Please review the following examples before continuing.
>  <molecule>
O=C1NCCN(c2cccc(Br)n2)N1

>  <class.name>
t

$$$$
>  <molecule>
O=C1NCCN(c2nc3ccccc3s2)N1

>  <class.name>
f

$$$$
>  <molecule>
O=C1NCCN(c2cccc(Cl)c2)N1

>  <class.name>
t

$$$$
>  <molecule>
O=C1NCCN(c2cccnc2)N1

>  <class.name>
f

$$$$
>  <molecule>
O=C1NCCN(c2cnc3ccccc3c2)N1

>  <class.name>
f

$$$$
>  <molecule>
Nc1cccc(N2CCNC(=O)N2)c1

>  <class.name>
f

$$$$

Ask | Dear colleague, could you confirm whether CC1CN(c2cccc(-c3cccs3)c2)NC(=O)N1 (centres undefined) has pIC50 at or above 5?
Reply | t

Ask | Dear colleague, could you confirm whether CON1C(=O)NN(c2ccccc2)CC1C (centres undefined) has pIC50 at or above 5?
Reply | f

###

molecular target: Polyunsaturated fatty acid 5-lipoxygenase (Homo sapiens, UniProt P09917); assay: In vitro 5-lipoxygenase inhibitory activity against calcium ionophore (A23187) induced LTB4 formation in human whole blood; format: functional, tissue-based
Sequence (P09917 whole entry): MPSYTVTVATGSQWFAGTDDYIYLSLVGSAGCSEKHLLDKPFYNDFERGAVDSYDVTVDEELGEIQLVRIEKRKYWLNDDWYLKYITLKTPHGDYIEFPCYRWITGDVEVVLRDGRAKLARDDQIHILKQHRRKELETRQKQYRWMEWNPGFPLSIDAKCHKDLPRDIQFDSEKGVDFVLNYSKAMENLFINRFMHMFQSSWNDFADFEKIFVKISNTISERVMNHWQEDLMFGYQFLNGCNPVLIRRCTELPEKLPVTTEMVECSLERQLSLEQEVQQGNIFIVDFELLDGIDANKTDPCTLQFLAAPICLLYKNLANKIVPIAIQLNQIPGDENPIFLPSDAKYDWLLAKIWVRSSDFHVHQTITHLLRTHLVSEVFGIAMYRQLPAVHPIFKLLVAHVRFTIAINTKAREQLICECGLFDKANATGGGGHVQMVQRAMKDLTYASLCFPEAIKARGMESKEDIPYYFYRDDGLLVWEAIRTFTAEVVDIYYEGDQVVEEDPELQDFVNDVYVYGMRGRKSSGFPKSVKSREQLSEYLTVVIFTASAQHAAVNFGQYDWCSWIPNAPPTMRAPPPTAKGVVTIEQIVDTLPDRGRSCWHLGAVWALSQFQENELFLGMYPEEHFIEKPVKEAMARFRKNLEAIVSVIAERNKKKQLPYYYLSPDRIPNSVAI
value.type: pIC50
In simple prose, pIC50 is minus the logarithm base ten of a concentration in moles per litre.

Ask | Item O=C1NCCN(c2ccccc2)N1 : provide pIC50
Reply | 5.24

###

Measured log10(Cmax), listed per entry.
assay: Plasma Cmax in rat (PO dose); format: ADME, organism-based; design: route oral
Annotation: log10 of Cmax, µM basis.

Recorded results for 5 compounds are shown here.
>  <compound>
O=C1NCCN(c2ccccn2)N1

>  <numeric.value>
2.26

$$$$
>  <compound>
CC1(C)CN(c2ccccc2)NC(=O)N1

>  <numeric.value>
1.30

$$$$
>  <compound>
Cc1cccc(N2CCNC(=O)N2)n1

>  <numeric.value>
2.00

$$$$
>  <compound>
O=C1NCCN(c2cccc(F)c2)N1

>  <numeric.value>
2.03

$$$$
>  <compound>
CC1CN(c2cccc(Br)c2)NC(=O)N1 (centres undefined)

>  <numeric.value>
1.41

$$$$

Ask | Item CCCCC1CN(c2ccccc2)NC(=O)N1 (centres undefined) : provide log10(Cmax)
Reply | 0.90

Ask | Item O=C1NCCN(c2cccc(Br)c2)N1 : provide log10(Cmax)
Reply | 1.54

Ask | Item O=C1NCCN(c2cccc(-c3cccs3)c2)N1 : provide log10(Cmax)
Reply | 0.48

###

assay: Tmax in dog (PO dose); type: ADME, organism-based, Canis lupus familiaris; conditions: in vivo
value.type: Tmax (min)
Quick note: give the figure in min, leave out the unit.

Ask | Item O=C1NCCN(c2ccccc2)N1 : provide Tmax
Reply | 18

###

target: Polyunsaturated fatty acid 5-lipoxygenase (Rattus norvegicus); assay: Inhibition of 5-lipoxygenase catalysis in rat basophilic leukemia (RBL) cells by measuring 5-HETE product formation; format: cell-based, RBL-1
Measured log10 IC50, listed per entry.
Annotation: log10 of IC50, µM basis.

Ask | Item Cc1cccc(N2CC(C)NC(=O)N2)n1 (stereo not given) : provide log10 IC50
Reply | 0.58

Ask | Item O=C1NCCN(c2cccc(O)c2)N1 : provide log10 IC50
Reply | 1.51

Ask | Item Cc1ccc(N2CCNC(=O)N2)cc1 : provide log10 IC50
Reply | 2.48

Ask | Item CC1CN(c2cccc(F)c2)NC(=O)N1 (stereo not given) : provide log10 IC50
Reply | 0.80

Ask | Item COc1cccc(N2CCNC(=O)N2)c1 : provide log10 IC50
Reply | 1.67
